Just for reference, paper PMC7367873 is where these values come from.

Tested on: GFP-14-3-3β and its binding proteins
Assay Summary: GFP-14-3-3β co-IP with LC-MS/MS label-free quantification, untreated versus PP1c-treated
Design: species or system human
Measurement Setup: pairwise comparison PP1 vs untreated, student's t-test; 3 replicates each; LC-MS/MS label-free quantification
Method: HeLa Kyoto cells expressing transiently transfected pEGFP(C1)-14-3-3β or pEGFP(C1) control plasmid, were incubated with 20 nM Calyculin A (# 9902 S, Cell Signaling Technology) for 12 min. […] The samples were analyzed by LC-MS/MS on a Dionex Ultimate 3000 nano-HPLC coupled online to a Fusion Lumos Tribrid mass spectrometer (Thermo Fisher Scientific). […]
Observable: Difference (log2), PP1 vs untreated
Please state the figure in log2; there is no need to write the unit.

Query string: Using the record for FAM122B (protein, UniProt Q7Z309 2-247, looked up) PABIR family member 2: AQEKMELDLEPDTSYGGTLRRSSSAPLIHGLSDLSQVFQPYTLRTRRNSTTIMSRHSLEEGLDMVNRETAHEREMQTAMQISQSWDESLSLSDSDFDKPEKLYSPKRIDFTPVSPAPSPTRGFGKMFVSSSGLPPSPVPSPRRFSRRSQSPVKCIRPSVLGPLKRKGEMETESQPKRLFQGTTNMLSPDAAQLSDLSSCSDILDGSSSSSGLSSDPLAKGSATAESPVACSNSCSSFILMDDLSPK , report its Difference (log2), PP1 vs untreated.
Result string: -5.572
